- Test summary: method code SF-AS, from DOI: 10.1271/bbb1961.46.2755
Recorded endpoint: logP
Please reply with the number alone, leaving off any unit.

For this molecule ( O=C1COC(=O)N1c1ccccc1 ), measured logP is 0.93

---

- Test summary: method code SF-AS, from DOI: 10.1016/0147-6513(87)90041-8, PMID: 3830021
Recorded endpoint: logP
Form field (numeric): enter value without unit.

Reported logP of COC(=O)CCN(CCC(=O)OC)c1ccc(/N=N/c2c(Cl)cc([N+](=O)[O-])cc2Br)cc1 : 4.1

---

In this section, each of the compounds is paired with its reported logP.
Lab note: record just the number, no unit beside it.

According to the records, this compound Cc1cn(C2CC(N=[N+]=[N-])C(COC(=O)C(=O)NC(CC(C)C)C(=O)O)O2)c(=O)[nH]c1=O (stereo not drawn) displays logP of 1.12

// Cc1cn(C2CC(N=[N+]=[N-])C(COC(=O)C(=O)NC(C(=O)O)C(C)C)O2)c(=O)[nH]c1=O (stereo not drawn) : logP value = 0.68

In plain terms, Cc1cn(C2CC(N=[N+]=[N-])C(COC(=O)C(=O)N3CCCC3C(=O)O)O2)c(=O)[nH]c1=O (stereo not drawn) has a documented logP of 0.16
